Target: human PHD2 (Homo sapiens (Human))
Sequence (Q9GZT9 whole entry): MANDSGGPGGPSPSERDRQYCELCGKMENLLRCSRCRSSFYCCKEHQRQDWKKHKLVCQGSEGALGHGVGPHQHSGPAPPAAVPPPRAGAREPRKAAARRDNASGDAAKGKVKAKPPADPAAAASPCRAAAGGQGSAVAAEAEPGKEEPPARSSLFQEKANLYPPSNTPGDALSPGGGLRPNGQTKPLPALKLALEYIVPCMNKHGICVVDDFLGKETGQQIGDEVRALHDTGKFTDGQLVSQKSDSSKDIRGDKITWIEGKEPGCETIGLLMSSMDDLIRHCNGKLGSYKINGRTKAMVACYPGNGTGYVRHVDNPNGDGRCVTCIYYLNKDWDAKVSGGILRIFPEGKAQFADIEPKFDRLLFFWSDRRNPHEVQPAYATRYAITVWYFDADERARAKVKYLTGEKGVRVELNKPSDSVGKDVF
Test: Test 2: human PHD2 inhibitory activity, fluorescence polarization assay of HIF-1α peptide proline hydroxylation
Assay type: biochemical
Conditions: test compound's concentration 1 μM; Test 2, fluorescence polarization assay; read-out: Percent inhibition (% at 1 μM)
Measured inhibition at 1 µM by item
State the value with its unit after it.

Look over these answered cases.
compound=Cc1cccc(Oc2ccc(CN3CCC(O)=C(C(=O)NCC(=O)O)C3=O)cn2)c1 system="human PHD2 (Homo sapiens (Human))" measured_parameter="inhibition at 1 µM" result=90%
compound=O=C(O)CNC(=O)C1=C(O)C2(CCCCC2)N(Cc2ccc(-c3ccc(C(F)(F)F)cc3)cc2)C1=O system="human PHD2 (Homo sapiens (Human))" measured_parameter="inhibition at 1 µM" result=87%

Response field inhibition at 1 µM (human PHD2 (Homo sapiens (Human))) for item Cc1cc(C)n(COc2ccc(CN3CCC(O)=C(C(=O)NCC(=O)O)C3=O)cc2)n1 : 87%

Response field inhibition at 1 µM (human PHD2 (Homo sapiens (Human))) for item CC1(C)CC(O)=C(C(=O)NCC(=O)O)C(=O)N1Cc1ccc(OCCCC(F)(F)F)c(F)c1 : 73%

FYI, the data here is from patent US9422240B2.
